target: CDK2/Cyclin E1 (Homo sapiens); assay: CDK2/Cyclin E1 TR-FRET biochemical assay, 1 mM ATP; details: 0.15 μM Rb (Ser780)-biotin substrate, 90 min reaction, Table 2
assay metric: IC50 (nM)
Unit nM implied. Number only.

CC(C)(C)c1cnc(C2CCC(c3cc(Nc4cc5c(cc4F)S(=O)(=O)NC5)n[nH]3)C2)o1 (single isomer, unassigned) [Example 17d]: 2870

INPUT: Query: IC50; subject: Cc1cccc(C2CCC(c3cc(Nc4ccc5c(c4F)CS(=O)(=O)N5)n[nH]3)C2)n1 (stereo not shown)
OUTPUT: 1040

INPUT: Query: IC50; subject: CC(C)c1ccnc(C2CCC(c3cc(Nc4ccc5c(c4F)CS(=O)(=O)N5)n[nH]3)C2)n1 (stereo not shown)
OUTPUT: 1.7

INPUT: Query: IC50; subject: CC(C)(C)c1cc(C2CCC(c3cc(Nc4ccc5c(c4F)CS(=O)(=O)N5)n[nH]3)C2)ccn1 (stereo not shown)
OUTPUT: 1060

INPUT: Query: IC50; subject: CC(C)(C)c1cnc(C2CCC(c3cc(Nc4ccc5c(c4)CS(=O)(=O)N5)n[nH]3)C2)s1 (stereo not shown)
OUTPUT: 2030

INPUT: Query: IC50; subject: CC(C)(C)c1ccnc([C@@H]2CC[C@H](c3cc(Nc4ccc5c(c4F)CNS5(=O)=O)n[nH]3)C2)n1 (relative stereo)
OUTPUT: 1.5

INPUT: Query: IC50; subject: CC(C)(C)c1ccc(C2CCC(c3cc(Nc4ccc5c(c4F)CS(=O)(=O)N5)n[nH]3)C2)o1 (stereo not shown)
OUTPUT: 1020

* * *

biological target: CDK2/Cyclin E1 (Homo sapiens, UniProt P24941); test: CDK2/Cyclin E1 TR-FRET biochemical assay, 1 mM ATP; conditions: 0.15 μM Rb (Ser780)-biotin substrate, 90 min reaction, Table 2
assay metric: log10 of IC50 (log10 of the value in nM)
Could you please treat all values as log10 of IC50 in nM?

COc1cccc(C2CCC(c3cc(Nc4ccc5c(c4F)CS(=O)(=O)N5)n[nH]3)C2)n1 (stereo not shown): 2.94

INPUT: Provide the documented log10 of IC50 with CDK2/Cyclin E1 (Homo sapiens, UniProt P24941) as the system for COc1cccc(C2CCC(c3cc(Nc4cc5c(cc4F)S(=O)(=O)NC5)n[nH]3)C2)n1 (stereo not shown)
OUTPUT: 3.44

INPUT: Provide the documented log10 of IC50 with CDK2/Cyclin E1 (Homo sapiens, UniProt P24941) as the system for CC(C)(C)c1cc(C2CCC(c3cc(Nc4ccc5c(c4F)CNS5(=O)=O)n[nH]3)C2)ccn1 (stereo not shown)
OUTPUT: 3.90

INPUT: Provide the documented log10 of IC50 with CDK2/Cyclin E1 (Homo sapiens, UniProt P24941) as the system for CC(C)(C)c1cncc(C2CCC(c3cc(Nc4ccc5c(c4F)CS(=O)(=O)N5)n[nH]3)C2)c1 (stereo not shown)
OUTPUT: 2.49

INPUT: Provide the documented log10 of IC50 with CDK2/Cyclin E1 (Homo sapiens, UniProt P24941) as the system for CC(C)(C)c1cnc(C2CCC(c3cc(Nc4ccc(S(N)(=O)=O)cc4F)n[nH]3)C2)o1 (single isomer, unassigned) [Example 6d]
OUTPUT: 2.70

INPUT: Provide the documented log10 of IC50 with CDK2/Cyclin E1 (Homo sapiens, UniProt P24941) as the system for CC(C)c1cnc(C2CCC(c3cc(Nc4ccc5c(c4)CS(=O)(=O)N5)n[nH]3)C2)o1 (single isomer, unassigned) [Example 138b]
OUTPUT: 1.08

INPUT: Provide the documented log10 of IC50 with CDK2/Cyclin E1 (Homo sapiens, UniProt P24941) as the system for CC(C)(C)c1cc(C2CCC(c3cc(Nc4ccc5c(c4F)CNS5(=O)=O)n[nH]3)C2)[nH]n1 (stereo not shown)
OUTPUT: 2.24
